Would you kindly list pIC50 for each of these molecules?
Molecular target: human TLR8 (Homo sapiens)
Construct: expressed in transfected cells; host or cells: HEK-Blue Null1 cells, lentiviral infection
Sequence (Q9NR97 27-1041): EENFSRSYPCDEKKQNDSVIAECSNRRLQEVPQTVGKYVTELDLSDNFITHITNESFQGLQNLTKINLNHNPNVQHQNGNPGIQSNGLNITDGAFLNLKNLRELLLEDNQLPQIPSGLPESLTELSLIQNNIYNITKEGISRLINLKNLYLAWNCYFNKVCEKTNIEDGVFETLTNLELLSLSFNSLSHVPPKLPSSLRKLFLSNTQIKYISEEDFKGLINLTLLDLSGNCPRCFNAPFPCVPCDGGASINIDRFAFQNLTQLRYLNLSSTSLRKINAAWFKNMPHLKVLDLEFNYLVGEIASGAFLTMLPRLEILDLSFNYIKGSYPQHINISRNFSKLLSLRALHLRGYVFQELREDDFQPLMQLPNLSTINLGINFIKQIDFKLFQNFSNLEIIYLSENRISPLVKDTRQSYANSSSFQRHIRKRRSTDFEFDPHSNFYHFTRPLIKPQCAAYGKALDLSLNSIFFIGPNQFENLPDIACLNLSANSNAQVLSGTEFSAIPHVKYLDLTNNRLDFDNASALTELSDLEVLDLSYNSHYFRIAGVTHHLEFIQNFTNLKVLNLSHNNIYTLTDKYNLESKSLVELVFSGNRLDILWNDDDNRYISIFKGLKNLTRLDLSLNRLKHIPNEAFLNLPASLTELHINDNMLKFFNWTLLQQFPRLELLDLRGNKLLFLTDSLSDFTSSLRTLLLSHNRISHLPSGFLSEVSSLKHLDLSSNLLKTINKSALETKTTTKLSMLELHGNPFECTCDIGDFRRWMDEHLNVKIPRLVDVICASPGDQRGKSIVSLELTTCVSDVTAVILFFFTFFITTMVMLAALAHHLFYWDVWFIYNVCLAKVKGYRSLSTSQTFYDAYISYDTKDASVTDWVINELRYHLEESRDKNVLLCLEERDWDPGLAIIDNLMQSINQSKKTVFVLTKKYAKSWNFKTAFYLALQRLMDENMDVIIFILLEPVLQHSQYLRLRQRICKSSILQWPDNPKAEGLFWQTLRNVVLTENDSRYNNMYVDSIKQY
Experiment: SEAP reporter assay in HEK-Blue TLR8 cells, R848-induced TLR8 signaling
Assay type: cell-based
Settings: quinoline derivatives in HEK-Blue hTLR8 cells; ± SD, at least three biological replicates
One number for each entry, as −log10 of the molar value.

Using the record for Cc1cc(-c2n[nH]c(=O)c3ccccc23)ccc1O [Compound 14b] , report its pIC50.
5.89

Now consider the entry below.
Using the record for Cc1cc(-c2ccc(O)c(C)c2)c2ccccc2n1 [Compound 11c] , report its pIC50.
7.07
